Value source: PubChem BioAssay (NCI)

# Tested on: LXFL 529 NSCLC
# METHOD NOTES: NCI tumour cell line growth inhibition, 48 h
# TGI annotations
ASSAY METRIC: TGI

{"COMPOUND": "CC(C)(C)c1cc2c3c(c1)C(C(F)(F)F)(C(F)(F)F)O[Te]3(C)OC2(C(F)(F)F)C(F)(F)F", "ENDPOINT VALUE": "> 100 µM"}
{"COMPOUND": "O=C(O)/C(=C/C=C/c1ccccc1)c1csc(-c2nc(/C(=C\\C=C\\c3ccccc3)C(=O)O)cs2)n1", "ENDPOINT VALUE": "64.8 µM"}
{"COMPOUND": "CNC(=O)N(C)COC", "ENDPOINT VALUE": "> 100 µM"}
{"COMPOUND": "C1=CC=C2NCCCNC3=CC=CC=CC3=NCCCN=C2C=C1", "ENDPOINT VALUE": "> 100 µM"}
{"COMPOUND": "O=C(Cc1nc2ccccc2s1)Nc1cccc(C(F)(F)F)c1", "ENDPOINT VALUE": "27.3 µM"}
{"COMPOUND": "C=C(Br)N(CC)CC", "ENDPOINT VALUE": "> 100 µM"}
{"COMPOUND": "O=C(Cn1ccnc1[N+](=O)[O-])c1ccc(F)cc1", "ENDPOINT VALUE": "> 100 µM"}
{"COMPOUND": "O=[N+]([O-])c1cccc(C2ON2C2CCCCC2)c1 (stereo not drawn)", "ENDPOINT VALUE": "45.6 µM"}

----------
# Test system: NCI/ADR-RES ovarian
# METHOD NOTES: NCI tumour cell line growth inhibition, 48 h
Reported TGI values follow for various compounds
ASSAY METRIC: TGI

{"COMPOUND": "COc1ccc(OC)c(CC2CCc3nc(N)nc(N)c3C2)c1 (centres undefined)", "ENDPOINT VALUE": "> 32.4 µM"}
{"COMPOUND": "CC1OC(O[C@H]2C3C=CO[C@@H](OC4OC(CO)C(O)C(O)C4O)C3[C@@]3(COC(=O)/C=C/c4ccc(O)cc4)O[C@@H]23)C(O)C(O)C1O (some centres undefined)", "ENDPOINT VALUE": "> 100 µM"}
{"COMPOUND": "O=CC(O)C(O)C(O)C(O)COP(=O)(O)Cc1ccccc1 (centres undefined)", "ENDPOINT VALUE": "> 10 µM"}
{"COMPOUND": "Nc1nc(-c2ccccc2)nc(N)c1N=O", "ENDPOINT VALUE": "59.6 µM"}

----------
# Test system: DU-145 prostate
# METHOD NOTES: NCI tumour cell line growth inhibition, 48 h

{"SMILES INPUT": "Cc1cc(NC[C@H](O)[C@H](O)[C@H](O)CO)c(Sc2cc(=O)[nH]c(=O)[nH]2)cc1C", "TGI": "> 62.5 µM"}
{"SMILES INPUT": "COc1cc(O)c(C(=O)/C=C/c2ccc(O)cc2)c(O)c1[C@@H]1C[C@H](CCc2ccc(O)cc2)O[C@H](c2ccc(O)cc2)C1", "TGI": "10.9 µM"}
{"SMILES INPUT": "CSc1ccc(NC(=S)NN(C)C)cc1", "TGI": "> 10 µM"}
{"SMILES INPUT": "O=C(/C=C/c1ccc(/C=C/C(=O)c2ccc(O)cc2)cc1)c1ccc(O)cc1", "TGI": "> 100 µM"}
{"SMILES INPUT": "Cn1c2ccccc2c2c(=O)[nH]c(=O)[nH]c21", "TGI": "> 100 µM"}
